# Test system: A549 cells
# ASSAY_COMMENT: Cell cycle and apoptosis by flow cytometry, A549
# Format: cell-based
# EXPERIMENTAL_SETUP: A549, 10 μg/ml, 3 days, PI flow cytometry
# Method: 1.4 Detection of Cell Cycle and Apoptosis by Flow Cytometry A549 cells in the logarithmic phase are collected, regulated with the concentrations thereof to 8×10^7/L, inoculated in a 6-hole board, cultured in an incubator (37° C. and 5% CO2). […] Each sample detects 10000 cells and repeats for three times, and the data are analyzed by Analysis software for the ratio during the G0-G1, S and G2-M periods and the ratio of apoptotic cells.
Quick rule: G0-G1 (%) of at least 40% means Yes, below that means No.

CC1=C(/C=C/C(C)=C/C=C/C(C)=C/C(=O)Nc2cccc(C(F)(F)F)c2)C(C)(C)CCC1	No
CC1=C(/C=C/C(C)=C/C=C/C(C)=C/C(=O)Nc2ccc(C(F)(F)F)cc2)C(C)(C)CCC1	Yes
CC1=C(/C=C/C(C)=C/C=C/C(C)=C/C(=O)Oc2ccccc2C(F)(F)F)C(C)(C)CCC1	Yes
CC1=C(/C=C/C(C)=C/C=C/C(C)=C/C(=O)Oc2ccc(N)cc2C(F)(F)F)C(C)(C)CCC1	Yes

Shifting focus to the compound that follows.
[Q] Item `CC1=C(/C=C/C(C)=C/C=C/C(C)=C/C(=O)Nc2cccc(OC(F)(F)F)c2)C(C)(C)CCC1` with G0-G1 (%) of 40% or above?
[A] Yes

* * *

# Tested on: K562 cells
# ASSAY_COMMENT: Cell cycle analysis by flow cytometer, K562
# Assay type: cell-based
# Design: dose or concentration left out as unconfirmed
# EXPERIMENTAL_SETUP: 72 h
OBSERVABLE: S % (%)
Kindly provide the numeric value in % only, without the unit symbol.

Example cases with answers are listed next.
CC1=C(/C=C/C(C)=C/C=C/C(C)=C/C(=O)Oc2ccc(OC(F)(F)F)cc2)C(C)(C)CCC1	55.0
CC1=C(/C=C/C(C)=C/C=C/C(C)=C/C(=O)Oc2ccc(N)cc2C(F)(F)F)C(C)(C)CCC1	55.4
CC1=C(/C=C/C(C)=C/C=C/C(C)=C/C(=O)Oc2cccc(OC(F)(F)F)c2)C(C)(C)CCC1	54.2
CC1=C(/C=C/C(C)=C/C=C/C(C)=C/C(=O)Oc2cccc(C(F)(F)F)c2)C(C)(C)CCC1	54.6

Pending compound:
[Q] Bench note: what S % did `CC1=C(/C=C/C(C)=C/C=C/C(C)=C/C(=O)Nc2cccc(OC(F)(F)F)c2)C(C)(C)CCC1` show?
[A] 56.8

* * *

# Tested on: HepG2 cells
# ASSAY_COMMENT: γ-GT specific activity of HepG2 cells
# Format: cell-based
# EXPERIMENTAL_SETUP: DMSO
Quick rule: γ-GT of at least 60 U/L means yes (1), below that means no (0).

[Q] Item `CC1=C(/C=C/C(C)=C/C=C/C(C)=C/C(=O)Nc2cccc(OC(F)(F)F)c2)C(C)(C)CCC1` with γ-GT of 60 U/L or above?
[A] no (0)

[Q] Item `CC1=C(/C=C/C(C)=C/C=C/C(C)=C/C(=O)Nc2ccc(C(F)(F)F)cc2)C(C)(C)CCC1` with γ-GT of 60 U/L or above?
[A] no (0)

[Q] Item `CC1=C(/C=C/C(C)=C/C=C/C(C)=C/C(=O)Nc2ccc(OC(F)(F)F)cc2)C(C)(C)CCC1` with γ-GT of 60 U/L or above?
[A] no (0)

[Q] Item `CC1=C(/C=C/C(C)=C/C=C/C(C)=C/C(=O)Nc2cccc(C(F)(F)F)c2)C(C)(C)CCC1` with γ-GT of 60 U/L or above?
[A] no (0)

[Q] Item CC1=C(/C=C/C(C)=C/C=C/C(C)=C/C(=O)Nc2ccc(O)cc2)C(C)(C)CCC1 [Fenretinide, reference compound] with γ-GT of 60 U/L or above?
[A] yes (1)

* * *

Quick reference for Apoptosis Rate (%) among some compounds
# Tested on: HepG2 cells
# ASSAY_COMMENT: Cell cycle and apoptosis by flow cytometry, HepG2
# Format: cell-based
# EXPERIMENTAL_SETUP: HepG2, flow cytometry
Marks after values point to notes of the source that are not given here.

Example cases with answers are listed next.
CC1=C(/C=C/C(C)=C/C=C/C(C)=C/C(=O)Nc2cccc(C(F)(F)F)c2)C(C)(C)CCC1 [Example 3a-02]	30.2* %
CC1=C(/C=C/C(C)=C/C=C/C(C)=C/C(=O)Oc2ccccc2C(F)(F)F)C(C)(C)CCC1 [Example 2a-03]	16.3* %
CC1=C(/C=C/C(C)=C/C=C/C(C)=C/C(=O)Nc2ccc(OC(F)(F)F)cc2)C(C)(C)CCC1 [Example 6a-01]	11.1%
CC1=C(/C=C/C(C)=C/C=C/C(C)=C/C(=O)Nc2cccc(OC(F)(F)F)c2)C(C)(C)CCC1 [Example 6a-02]	15.7* %

[Q] Bench note: what Apoptosis Rate (%) did CC1=C(/C=C/C(C)=C/C=C/C(C)=C/C(=O)Oc2ccc(N)cc2C(F)(F)F)C(C)(C)CCC1 [Example 4a-02] show?
[A] 38.1* %

[Q] Bench note: what Apoptosis Rate (%) did CC1=C(/C=C/C(C)=C/C=C/C(C)=C/C(=O)Nc2ccc(C(F)(F)F)cc2)C(C)(C)CCC1 [Example 3a-01] show?
[A] 16.5* %

* * *

# Tested on: A549 cells
# ASSAY_COMMENT: Cell cycle and apoptosis by flow cytometry, A549
# Format: cell-based
# EXPERIMENTAL_SETUP: A549, 10 μg/ml, 3 days, PI flow cytometry
Could you mark each record MET if its S % falls strictly under 20%, and NOT MET if it equals or exceeds it?

These recorded examples may help you get a feel for the data.
CC1=C(/C=C/C(C)=C/C=C/C(C)=C/C(=O)Oc2ccccc2C(F)(F)F)C(C)(C)CCC1	NOT MET
CC1=C(/C=C/C(C)=C/C=C/C(C)=C/C(=O)Nc2ccc(C(F)(F)F)cc2)C(C)(C)CCC1	NOT MET
CC1=C(/C=C/C(C)=C/C=C/C(C)=C/C(=O)Nc2cccc(C(F)(F)F)c2)C(C)(C)CCC1	NOT MET

[Q] Report whether reported S % is lower than 20% (strictly) for `CC1=C(/C=C/C(C)=C/C=C/C(C)=C/C(=O)Oc2ccc(N)cc2C(F)(F)F)C(C)(C)CCC1`
[A] NOT MET

[Q] Report whether reported S % is lower than 20% (strictly) for `CC1=C(/C=C/C(C)=C/C=C/C(C)=C/C(=O)Nc2cccc(OC(F)(F)F)c2)C(C)(C)CCC1`
[A] MET

[Q] Report whether reported S % is lower than 20% (strictly) for `CC1=C(/C=C/C(C)=C/C=C/C(C)=C/C(=O)Nc2ccc(OC(F)(F)F)cc2)C(C)(C)CCC1`
[A] NOT MET

* * *

# System: A549 cells
# ASSAY_COMMENT: Cell cycle and apoptosis by flow cytometry, A549
# Type: cell-based
# EXPERIMENTAL_SETUP: A549, 10 μg/ml, 3 days, PI flow cytometry
Quick rule: Apoptosis Rate (%) of at least 30% means yes, below that means no.

These recorded examples may help you get a feel for the data.
CC1=C(/C=C/C(C)=C/C=C/C(C)=C/C(=O)Oc2ccccc2C(F)(F)F)C(C)(C)CCC1 [Example 2a-03]	no
CC1=C(/C=C/C(C)=C/C=C/C(C)=C/C(=O)Nc2ccc(C(F)(F)F)cc2)C(C)(C)CCC1 [Example 3a-01]	no
CC1=C(/C=C/C(C)=C/C=C/C(C)=C/C(=O)Oc2ccc(N)cc2C(F)(F)F)C(C)(C)CCC1 [Example 4a-02]	no

[Q] Item CC1=C(/C=C/C(C)=C/C=C/C(C)=C/C(=O)Nc2cccc(C(F)(F)F)c2)C(C)(C)CCC1 [Example 3a-02] with Apoptosis Rate (%) of 30% or above?
[A] yes

[Q] Item CC1=C(/C=C/C(C)=C/C=C/C(C)=C/C(=O)Nc2cccc(OC(F)(F)F)c2)C(C)(C)CCC1 [Example 6a-02] with Apoptosis Rate (%) of 30% or above?
[A] no

* * *

# Tested on: K562 cells
# ASSAY_COMMENT: Cell cycle analysis by flow cytometer, K562
# Type: cell-based
# Parameters: dose or concentration left out as unconfirmed
# EXPERIMENTAL_SETUP: 72 h
Quick rule: S % of at least 50% means 1, below that means 0.

CC1=C(/C=C/C(C)=C/C=C/C(C)=C/C(=O)Nc2cccc(C(F)(F)F)c2)C(C)(C)CCC1	1

[Q] Item `CC1=C(/C=C/C(C)=C/C=C/C(C)=C/C(=O)Oc2ccc(N)c(C(F)(F)F)c2)C(C)(C)CCC1` with S % of 50% or above?
[A] 1

[Q] Item CC1=C(/C=C/C(C)=C/C=C/C(C)=C/C(=O)Nc2ccc(O)cc2)C(C)(C)CCC1 [Fenretinide, reference compound] with S % of 50% or above?
[A] 1

[Q] Item `CC1=C(/C=C/C(C)=C/C=C/C(C)=C/C(=O)Oc2ccccc2C(F)(F)F)C(C)(C)CCC1` with S % of 50% or above?
[A] 0

[Q] Item `CC1=C(/C=C/C(C)=C/C=C/C(C)=C/C(=O)Nc2ccc(OC(F)(F)F)cc2)C(C)(C)CCC1` with S % of 50% or above?
[A] 1
